Test: Non-competitive inhibition of yeast alpha-glucosidase using p-nitrophenyl-alpha-D-glucopyranoside as substrate by Lineweaver-Burk double reciprocal plot analysis
Set-up: species or system Saccharomyces cerevisiae
attribute_measured: pKi
Kindly note that pKi refers to -log10 of the concentration in mol/L and answer with the value alone.

I am curious: what pKi value has been reported for `O=C(CCc1ccc(O)cc1)c1c(O)cc(O)c2c(C(=O)c3ccc(O)cc3O)c(-c3ccc(O)cc3)oc12` ?
5.47

###

Assay: Inhibition of yeast alpha-glucosidase using p-nitrophenyl-alpha-D-glucopyranoside as substrate preincubated with enzyme for 10 mins followed by substrate addition measured after 20 mins by spectrophotometric method
Parameters: species or system Saccharomyces cerevisiae
attribute_measured: pIC50
Kindly note that pIC50 refers to -log10 of the concentration in mol/L and answer with the value alone.

I am curious: what pIC50 value has been reported for `CCCCCCCCCCCC1=C(O)C(=O)C2=C(Oc3cc(O)c4c(c3C2(C)C)O[C@@H](c2ccc(O)c(O)c2)[C@H](O)C4)C1=O` ?
5.70

I am curious: what pIC50 value has been reported for `CCCCCCCCCCCCCC1=C(O)C(=O)C=C(O)C1=O` ?
5.74

I am curious: what pIC50 value has been reported for C[C@H]1O[C@H](O[C@H]2[C@H](O)[C@@H](O)[C@@H](O[C@H]3[C@H](O)[C@@H](O)C(O)O[C@@H]3CO)O[C@@H]2CO)[C@H](O)[C@@H](O)[C@@H]1N[C@H]1C=C(CO)[C@@H](O)[C@H](O)[C@H]1O (stereo partly drawn) ?
4.03

I am curious: what pIC50 value has been reported for `CCCCCCCCCCCCCC1=C(O)C(=O)C2=C(Oc3cc(O)c4c(c3C2(C)C)O[C@@H](c2ccc(O)c(O)c2)[C@H](O)C4)C1=O` ?
5.80

I am curious: what pIC50 value has been reported for `O=C(/C=C/c1ccc(O)cc1)c1c(O)cc(O)c2c(C(=O)c3ccc(O)cc3O)c(-c3ccc(O)cc3)oc12` ?
5.89

I am curious: what pIC50 value has been reported for `O=C(/C=C/c1ccc2c(c1)[C@@H](C(=O)c1ccc(O)cc1O)[C@H](c1ccc(O)cc1)O2)c1ccc(O)cc1O` ?
5.25

I am curious: what pIC50 value has been reported for `O=C(/C=C/c1ccc(O)c([C@@H]2C(=O)c3c(O)cc(O)cc3O[C@H]2c2ccc(O)cc2)c1)c1ccc(O)cc1O` ?
5.60
